Test system: 885724-159-R-J1-PDC KRAS PDC multicell spheroid viability;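 also: spheroids exposed to agents for 7 days before readout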
Experiment: Anticancer human tumor 885724-159-R-J1-PDC patient-derived pancreatic adenocarcinoma cell line growth inhibition [KRAS2]
Settings: second compound 3.16 µM; first compound 0.00316 µM; active compounds read low
Text: Multicellular complex tumor spheroid response to RAS pathway inhibitors in combination with a targeted agents in patient-derived cell lines with oncogenic KRAS variants from multiple cancer types A high-throughput screen of multi-cell type tumor spheroids was designed to identify active combinations of targeted small molecules and KRAS pathway inhibitors. […] Compounds. […] If the clinical Cmax for an agent had not been determined, the highest concentration tested was 10 microM. […]
Reported viability, T/C by item:
Reply numerically in %, unit not repeated.

Solved entries (count: 3):
molecule	endpoint name	units label	reported result
Cn1ncnc1[C@H]1c2n[nH]c(=O)c3cc(F)cc(c23)N[C@@H]1c1ccc(F)cc1 + CNCc1ccccc1-c1csc(C(C)Nc2nc(C)nc3cc(OC)c(OC)cc23)c1	viability, T/C	%	0.71
CN(C)C/C=C/C(=O)Nc1cc2c(Nc3ccc(F)c(Cl)c3)ncnc2cc1O[C@H]1CCOC1 + COc1cc2nc(C)nc(NC(C)c3cc(N)cc(C(F)(F)F)c3)c2cc1OC1CCOC1	viability, T/C	%	80.3
CN(C)C/C=C/C(=O)Nc1cc2c(Nc3ccc(F)c(Cl)c3)ncnc2cc1O[C@H]1CCOC1 + CC1OCC2(CCN(c3cnc(Sc4ccnc(N)c4Cl)c(N)n3)CC2)C1N	viability, T/C	%	77.8

Need viability, T/C, item CC(=O)Nc1cccc(-n2c(=O)n(C3CC3)c(=O)c3c(Nc4ccc(I)cc4F)n(C)c(=O)c(C)c32)c1 + CC1OCC2(CCN(c3cnc(Sc4ccnc(N)c4Cl)c(N)n3)CC2)C1N 24.3

Need viability, T/C, item Cn1ncnc1[C@H]1c2n[nH]c(=O)c3cc(F)cc(c23)N[C@@H]1c1ccc(F)cc1 + C=CC(=O)N1CCN(c2nc(OCC3CCCN3C)nc3c2CCN(c2cccc4cccc(C)c24)C3)CC1CC#N 63.3

Need viability, T/C, item CN(C)C/C=C/C(=O)Nc1cc2c(Nc3ccc(F)c(Cl)c3)ncnc2cc1O[C@H]1CCOC1 + C=CC(=O)N1CCN(c2nc(=O)n(-c3c(C)ccnc3C(C)C)c3nc(-c4c(O)cccc4F)c(F)cc23)C(C)C1 104

Need viability, T/C, item CC(=O)Nc1cccc(-n2c(=O)n(C3CC3)c(=O)c3c(Nc4ccc(I)cc4F)n(C)c(=O)c(C)c32)c1 + CNCc1ccccc1-c1csc(C(C)Nc2nc(C)nc3cc(OC)c(OC)cc23)c1 0.68

Need viability, T/C, item Cn1ncnc1[C@H]1c2n[nH]c(=O)c3cc(F)cc(c23)N[C@@H]1c1ccc(F)cc1 + C=CC(=O)N1CCN(c2nc(=O)n(-c3c(C)ccnc3C(C)C)c3nc(-c4c(O)cccc4F)c(F)cc23)C(C)C1 106

Need viability, T/C, item CC(=O)Nc1cccc(-n2c(=O)n(C3CC3)c(=O)c3c(Nc4ccc(I)cc4F)n(C)c(=O)c(C)c32)c1 + COc1cc2nc(C)nc(NC(C)c3cc(N)cc(C(F)(F)F)c3)c2cc1OC1CCOC1 27.6

Need viability, T/C, item Cn1ncnc1[C@H]1c2n[nH]c(=O)c3cc(F)cc(c23)N[C@@H]1c1ccc(F)cc1 + CC1OCC2(CCN(c3cnc(Sc4ccnc(N)c4Cl)c(N)n3)CC2)C1N 69.8

Need viability, T/C, item CCN1CCN(Cc2ccc(Nc3ncc(F)c(-c4cc(F)c5nc(C)n(C(C)C)c5c4)n3)nc2)CC1 + CC1OCC2(CCN(c3cnc(Sc4ccnc(N)c4Cl)c(N)n3)CC2)C1N 73.8
